Provenance of the data: patent US6821980B1

Let's look at some compounds and their measured MIC.
# Test system: Staphylococcus aureus 101
# experimental-details: MIC against Staphylococcus aureus 101
# Assay type: cell-based
# measurement-conditions: Table 2; Staphylococcus aureus 101, MRSA- and trimethoprim-resistant; clinical isolate; read-out: MIC Sa101
observable: MIC (µg/mL)

1. CCOc1cc(Cc2cnc(N)nc2N)cc(OS(=O)(=O)C(C)CC)c1-c1ccc(OC)c(N)c1 (stereo not shown); 2
2. CCOc1cc(Cc2cnc(N)nc2N)cc(OS(=O)(=O)N(CC)CC)c1-c1ccc(N)cc1; 2
3. CCOc1cc(Cc2cnc(N)nc2N)cc(OCCC2CCCCO2)c1-c1cccc(N)c1 (racemic); 8
4. CCOc1cc(Cc2cnc(N)nc2N)cc(OCC)c1-c1ccc(COCC(=O)N2CCSCC2)s1; 8
5. CCOc1cc(Cc2cnc(N)nc2N)cc(OCC)c1-c1ccc2cc(O)ccc2c1; 4
6. CCOc1cc(Cc2cnc(N)nc2N)cc(OCC)c1-c1ccc2c(c1)NCCO2; 8
7. CCOc1cc(Cc2cnc(N)nc2N)cc(OCC)c1-c1ccc(SC)nc1; 8
8. CCCOc1cc(Cc2cnc(N)nc2N)cc(OCC)c1-c1ccc(OC)cc1; 4
9. CCOc1cc(Cc2cnc(N)nc2N)cc(OS(=O)(=O)N(C)C)c1-c1ccc(CN2CCOCC2)cc1; 2
10. CCOc1cc(Cc2cnc(N)nc2N)cc(OCC)c1-c1ccc(C)c(N)c1; 8
11. CCOc1cc(Cc2cnc(N)nc2N)cc(OS(=O)(=O)C(C)C)c1-c1ccc2c(c1)OCO2; 2
12. CCOc1cc(Cc2cnc(N)nc2N)cc(OCC)c1-c1ccc(NS(C)(=O)=O)cc1; 8
13. CCOc1cc(Cc2cnc(N)nc2N)cc(OS(=O)(=O)N(CC)CC)c1-c1ccc(NC)cc1; 2

###

# System: Streptococcus pneumoniae 1/1
# experimental-details: MIC against Streptococcus pneumoniae 1/1
# Format: cell-based
# measurement-conditions: Table 2; Streptococcus pneumoniae 1/1, trimethoprim- and penicillin-resistant, serotype 6; clinical isolate; read-out: MIC Sp1/1
observable: MIC (µg/mL)

1) CCOc1cc(Cc2cnc(N)nc2N)cc(OCC)c1-c1ccc(COCC(=O)N2CCSCC2)s1; 2
2) CCCS(=O)(=O)Oc1cc(Cc2cnc(N)nc2N)cc(OCC)c1-c1ccc(O)cc1; 1
3) CCOc1cc(Cc2cnc(N)nc2N)cc(OS(=O)(=O)N(C)CC)c1-c1ccc(N)c(C)c1; 1
4) CCOc1cc(Cc2cnc(N)nc2N)cc(OCC)c1-c1ccc(F)c(N)c1; 2
5) CCOc1cc(Cc2cnc(N)nc2N)cc(OS(=O)(=O)N(CC)CC)c1-c1cccc(N)c1; 1
6) CCOc1cc(Cc2cnc(N)nc2N)cc(OCC2CC2)c1-c1ccc(CN2CCOCC2)s1; 1
7) CCOc1cc(Cc2cnc(N)nc2N)cc(OS(=O)(=O)C(C)CC)c1-c1ccc(CN2CCOCC2)c(N)c1 (stereo not drawn); 1
8) CCOc1cc(Cc2cnc(N)nc2N)cc(OS(=O)(=O)C2CC2)c1-c1cc(N)cc(F)c1; 2
9) CCOc1cc(Cc2cnc(N)nc2N)cc(OCC)c1-c1ccc(SC)nc1; 4
10) CCOc1cc(Cc2cnc(N)nc2N)cc(OCC)c1-c1cccc(OC)c1; 2
11) CCOc1cc(Cc2cnc(N)nc2N)cc(OCC)c1-c1ccc(C=O)cc1; 8
12) CCOc1cc(Cc2cnc(N)nc2N)cc(OS(=O)(=O)N(C)C)c1-c1ccc(CN2CCOCC2)c(F)c1; 2
